# EXPERIMENT_SUMMARY: ACEA_ER_AUC_viability: ACEA Biosciences xCELLigence Real-Time Cell Analysis on Estrogen Receptor Agonism for Viability (AID 2283782);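 also: continuous compound exposure with impedance area under curve over 80 h; hit means loss of impedance signal meaning reduced cell growth or viability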
# Procedure: ACEA_ER is a cell-based, single-readout assay that uses T47D, a human breast cell line, with measurements taken at 80 hours after chemical dosing in a 96-well plate, although TO2 (mc0.srcf) used a 384-well plate. Differences in plate size can be ignored given data normalization.ACEA_ER_AUC_viability is one of two assay component(s) measured or calculated from the ACEA_ER assay. […]
Inconclusive results are not listed. Active and inactive are the calls of the source. The calls were made as follows: active = hit-call score of the fitted dose curve at least 0.9, where 1 is the maximum; inconclusive = response in the unintended direction; inactive = score below 0.9.
EXPERIMENTAL_ENDPOINT: AC50

Some solved entries appear below for comparison.
N#CCCC(Br)(C#N)CBr (stereo not given) = 10.9 µM (active)
Nc1ccc(N)cc1 = 49.8 µM (active)
CCCCCCCCCCCCOS(=O)(=O)O = 71.3 µM (active)
O=C(O)COc1cc(Cl)c(Cl)cc1Cl = inactive
CCCCCCCCCCCCc1cccc(S(=O)(=O)O)c1 = 83.1 µM (active)
O=C(N[C@H]1CN2CCC1CC2)c1ccc2c(c1)OCCO2 = inactive
N#CCC#N = inactive
Cc1cccc(OP(=O)(Oc2cccc(C)c2)Oc2cccc(C)c2)c1 = 17.3 µM (active)
ClCc1ccccc1CCl = 29.6 µM (active)
CC(C)(COCC1CO1)COCC1CO1 (stereo not given) = 29.9 µM (active)

Give one value of AC50 per listed compound.
1. ClCCN1CCOCC1
2. O=C(O)COc1ccc(Cl)cc1
3. O=C1C=CC(=O)c2ccccc21
4. O=C1c2ccccc2C(=O)C1C(=O)C(c1ccccc1)c1ccc(Cl)cc1 (stereo not given)

31.6 µM (active)
inactive
22.5 µM (active)
33 µM (active)
